Would you kindly list cAMP production activity (%) for each of these compounds?
# experimental.target: human PTH1 receptor (Homo sapiens, UniProt Q03431)
# Sequence (Q03431 27-593): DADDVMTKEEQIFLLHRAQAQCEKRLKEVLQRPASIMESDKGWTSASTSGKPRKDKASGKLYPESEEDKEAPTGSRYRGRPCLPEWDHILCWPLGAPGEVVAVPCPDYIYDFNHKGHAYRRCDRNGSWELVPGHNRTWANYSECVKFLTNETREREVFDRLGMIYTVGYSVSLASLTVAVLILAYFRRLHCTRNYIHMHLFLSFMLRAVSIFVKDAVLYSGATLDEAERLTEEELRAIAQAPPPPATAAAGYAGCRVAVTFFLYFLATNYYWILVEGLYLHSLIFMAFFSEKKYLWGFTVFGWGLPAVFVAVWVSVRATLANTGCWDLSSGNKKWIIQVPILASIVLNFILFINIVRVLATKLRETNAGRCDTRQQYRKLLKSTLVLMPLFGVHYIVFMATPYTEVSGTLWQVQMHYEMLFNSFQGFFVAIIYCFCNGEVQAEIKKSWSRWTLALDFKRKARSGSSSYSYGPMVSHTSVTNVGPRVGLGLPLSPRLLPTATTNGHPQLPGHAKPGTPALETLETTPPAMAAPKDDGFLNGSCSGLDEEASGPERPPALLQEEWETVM
# assay.overview: In vitro cAMP signal activity in HKRK-B7 cells (LLC-PK1 cells overexpressing the human PTH1 receptor)
# Type: cell-based
# recorded.conditions: HKRK-B7 cells; compound at 1×10^−3 M; cAMP produced as percentage of that produced by hPTH(1-34) at 100 nM
Write the value in % as a bare number.

## Input Endpoint output: cAMP production activity (%) of Cc1cc(N(C[C@H](O)CO)C(N)=O)cc(C)c1CCS(=O)(=O)N1CCC2(CC1)N=C(C1CCC(C)CC1)NC2=O (stereo partly drawn) . Value?
## Output 73

## Input Endpoint output: cAMP production activity (%) of "Cc1cc(C(=O)N(C)C)cc(C)c1/C=C/S(=O)(=O)N1CCC2(CC1)N=C(c1cccc(C(F)(F)F)c1)NC2=O" . Value?
## Output 72

## Input Endpoint output: cAMP production activity (%) of "Cc1cc(C(=O)N2CCC(C)(O)CC2)cc(C)c1/C=C/S(=O)(=O)N1CCC2(CC1)N=C(c1ccc3c(c1)OC(F)(F)C(F)(F)O3)NC2=O" . Value?
## Output 96

## Input Endpoint output: cAMP production activity (%) of Cc1cc(N(C)C(N)=O)cc(C)c1CCS(=O)(=O)N1CCC2(CC1)N=C(C1CCC(C)CC1)NC2=O (stereo not drawn) . Value?
## Output 90

## Input Endpoint output: cAMP production activity (%) of Cc1cc(N2C(=O)CNC2=O)cc(C)c1CCS(=O)(=O)N1CCC2(CC1)N=C(C1CCC(C)CC1)NC2=O (stereo not drawn) . Value?
## Output 56

## Input Endpoint output: cAMP production activity (%) of "Cc1cc2ccc1CCS(=O)(=O)N1CCC3(CC1)N=C(NC3=O)c1cc(cc(C(F)(F)F)c1)OCCOCCOCCN(C)C2=O" . Value?
## Output 40

====

# experimental.target: human PTH1 receptor (Homo sapiens, UniProt Q03431)
# assay.overview: In vitro cAMP signal activity in HKRK-B7 cells (LLC-PK1 cells overexpressing the human PTH1 receptor)
# Type: cell-based
# recorded.conditions: HKRK-B7 cells; compound at 1×10^−3 M; cAMP produced as percentage of that produced by hPTH(1-34) at 100 nM
Would you kindly list cAMP production activity (%) for each of these compounds?
Write the value in % as a bare number.

## Input Endpoint output: cAMP production activity (%) of Cc1c(CCS(=O)(=O)N2CCC3(CC2)N=C(c2cccc(OC(F)(F)F)c2)NC3=O)cccc1C(=O)N1CCOCC1 [Compound 411] . Value?
## Output 54

## Input Endpoint output: cAMP production activity (%) of CCCCCCCCCC1=NC2(CCN(S(=O)(=O)CCc3c(C)cc(C(=O)N4CCCC4)cc3C)CC2)C(=O)N1 [Compound 980] . Value?
## Output 85

## Input Endpoint output: cAMP production activity (%) of Cc1cc(CN2C(=O)NC(C)(C)C2=O)cc(C)c1/C=C/S(=O)(=O)N1CCC2(CC1)N=C(C1CCC(CCC(F)(F)F)CC1)NC2=O (stereo not drawn) [Compound 555] . Value?
## Output 40

## Input Endpoint output: cAMP production activity (%) of Cc1cc(C(=O)N2CCC(O)CC2)cc(C)c1CCS(=O)(=O)N1CCC2(CC1)N=C(c1cccc(OC(F)(F)F)c1)NC2=O [Compound 964] . Value?
## Output 119

## Input Endpoint output: cAMP production activity (%) of Cc1cc(S(=O)(=O)NCc2cccnc2)ccc1/C=C/S(=O)(=O)N1CCC2(CC1)N=C(c1cccc(C(F)(F)F)c1)NC2=O [Compound 591] . Value?
## Output 34

## Input Endpoint output: cAMP production activity (%) of Cc1cc(C(=O)N2CCS(=O)(=O)CC2)ccc1/C=C/S(=O)(=O)N1CCC2(CC1)N=C(C1CCCCC1)NC2=O [Compound 502] . Value?
## Output 14

## Input Endpoint output: cAMP production activity (%) of Cc1cc(C(=O)N(C)C)ccc1-c1cccc(S(=O)(=O)N2CCC3(CC2)N=C(c2cccc(OC(F)(F)F)c2)NC3=O)n1 [Compound 337] . Value?
## Output 17

## Input Endpoint output: cAMP production activity (%) of Cc1cc(CN)cc(C)c1/C=C/S(=O)(=O)N1CCC2(CC1)N=C(C1CCC(C)CC1)NC2=O (stereo not drawn) [Compound 1291] . Value?
## Output 48

## Input Endpoint output: cAMP production activity (%) of Cc1cc(N2CCOCC2=O)ccc1CCS(=O)(=O)N1CCC2(CC1)N=C(c1cccc(OC(F)(F)F)c1)NC2=O [Compound 793] . Value?
## Output 124

## Input Endpoint output: cAMP production activity (%) of CCCCCCCCCC1=NC2(CCN(S(=O)(=O)CCc3c(C)cc(C(=O)N4CC(O)C4)cc3C)CC2)C(=O)N1 [Compound 985] . Value?
## Output 120

## Input Endpoint output: cAMP production activity (%) of Cc1c(/C=C/S(=O)(=O)N2CCC3(CC2)N=C(c2cccc(OC(F)(F)F)c2)NC3=O)cccc1OCCO [Compound 256] . Value?
## Output 67

## Input Endpoint output: cAMP production activity (%) of Cc1cc(N2C(=O)CNC2=O)c(C)cc1CCS(=O)(=O)N1CCC2(CC1)N=C(C1CCC(C)CC1)NC2=O (stereo not drawn) [Compound 778] . Value?
## Output 57

## Input Endpoint output: cAMP production activity (%) of O=C1NC(C2CCCCC2)=NC12CCN(S(=O)(=O)/C=C/c1c(F)cccc1C(F)(F)F)CC2 [Compound 183] . Value?
## Output 68

## Input Endpoint output: cAMP production activity (%) of Cc1cc(CN(CCCN(C)C)C(=O)OC(C)(C)C)ccc1/C=C/S(=O)(=O)N1CCC2(CC1)N=C(C1CCCCC1)NC2=O [Compound 569] . Value?
## Output 4.2

## Input Endpoint output: cAMP production activity (%) of CC(=O)Nc1ccc(CCS(=O)(=O)N2CCC3(CC2)N=C(C2CCC(=CCCF)CC2)NC3=O)c(C)c1 (stereo not drawn) [Compound 1066] . Value?
## Output 83

## Input Endpoint output: cAMP production activity (%) of CC(C)COC(=O)N1CCCC(C2=NC3(CCN(S(=O)(=O)c4cccc(Cl)c4)CC3)C(=O)N2)C1 (stereo not drawn) [Compound 462] . Value?
## Output 47

## Input Endpoint output: cAMP production activity (%) of Cc1cc(C(=O)N2CCC(C)(O)CC2)cc(C)c1/C=C/S(=O)(=O)N1CCC2(CC1)N=C(c1cccc(COc3cccc(C(F)(F)F)c3)c1)NC2=O [Compound 1205] . Value?
## Output 83

## Input Endpoint output: cAMP production activity (%) of CC[C@H]1CC[C@H](C2=NC3(CCN(S(=O)(=O)/C=C/c4ccc(N5CC(=O)NC5=O)cc4C)CC3)C(=O)N2)CC1 [Compound 624] . Value?
## Output 36

## Input Endpoint output: cAMP production activity (%) of CCCC1=NC2(CCN(S(=O)(=O)c3cccc(Cl)c3)CC2)C(=O)N1 [Compound 3] . Value?
## Output 20

## Input Endpoint output: cAMP production activity (%) of Cc1cc(C(=O)N2CCC(C)(O)CC2)cc(C)c1/C=C/S(=O)(=O)N1CCC2(CC1)N=C(c1ccc3c(c1)OCO3)NC2=O [Compound 1194] . Value?
## Output 62

## Input Endpoint output: cAMP production activity (%) of O=C1NC(C2CCCCC2)=NC12CCN(S(=O)(=O)CCc1cccc3ccccc13)CC2 [Compound 61] . Value?
## Output 43

## Input Endpoint output: cAMP production activity (%) of Cc1cc(C(=O)N2CCC(C)(O)CC2)cc(C)c1/C=C/S(=O)(=O)N1CCC2(CC1)N=C(c1cccc(CC#N)c1)NC2=O [Compound 1187] . Value?
## Output 75

## Input Endpoint output: cAMP production activity (%) of CC(=O)N(C)Cc1cc(C)c(CCS(=O)(=O)N2CCC3(CC2)N=C(C2CCC(C)CC2)NC3=O)c(C)c1 (stereo not drawn) [Compound 785] . Value?
## Output 92

## Input Endpoint output: cAMP production activity (%) of Cc1cc(CN(C)C(N)=O)cc(C)c1CCS(=O)(=O)N1CCC2(CC1)N=C(C1CCC(CCC(F)(F)F)CC1)NC2=O (stereo not drawn) [Compound 1389] . Value?
## Output 67

## Input Endpoint output: cAMP production activity (%) of CN(C)C(=O)NCc1ccc(/C=C/S(=O)(=O)N2CCC3(CC2)N=C(C2CCCCC2)NC3=O)cc1 [Compound 565] . Value?
## Output 45

## Input Endpoint output: cAMP production activity (%) of CCCCC1CCC(C2=NC3(CCN(S(=O)(=O)CCc4ccc(NC(C)=O)cc4C)CC3)C(=O)N2)CC1 (stereo not drawn) [Compound 905] . Value?
## Output 75

## Input Endpoint output: cAMP production activity (%) of Cc1cc(C(=O)N2CCN(C(C)(C)C)CC2)ccc1CCS(=O)(=O)N1CCC2(CC1)N=C(c1cccc(C(F)(F)F)c1)NC2=O [Compound 373] . Value?
## Output 70
